System: TbCBP66* (Trypanosoma brucei)
Experiment Description: EMSA
Run Conditions: EMSA: 20 mM HEPES pH 7.5, 50 mM NaCl, 5 mM MgCl2, Tween (0.05% in RNA buffer), RNA stock 50 nM mixed 1:1, 30 min on ice, 6% native PAGE 4 C; FP: same buffer, 0.

| Polymer Sequence | Uom | Kd |
| --- | --- | --- |
| AUUAGAACAGUUUCUGUACUAUAUUG [SL-hairpin_loop (A14-G39)] | nM | 390 |

Ref: paper PMC11735809
